TESTED TARGET: Pancreatic phospholipase A2 (Homo sapiens, UniProt P04054)
Sequence (P04054 23-148): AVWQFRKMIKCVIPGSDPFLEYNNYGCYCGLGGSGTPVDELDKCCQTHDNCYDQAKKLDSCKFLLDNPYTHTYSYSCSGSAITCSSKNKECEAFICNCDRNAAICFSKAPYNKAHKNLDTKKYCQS
ASSAY OVERVIEW: Phospholipase A2 (PLA2) Assay
Type: biochemical
MEASUREMENT SETUP: 30 µg/ml test compound; inhibition of 14C-free fatty acid formation
QUANTITY NAME: inhibition at 30 µg/mL (%)

COMPOUND	SCALE UNIT	inhibition at 30 µg/mL
CC/C=C\C/C=C\C/C=C\CCCCCCC1=CC(=O)OC1O (centres unmarked)	%	82
CCCC/C=C\CCCCCCCCCCC1=CC(=O)OC1O (centres unmarked)	%	0
CC(C)=CCCC(C)=CCCC(C)=CCCC1=CC(=O)OC1O (centres unmarked)	%	50

P: CCCCC/C=C\C/C=C\C/C=C\C/C=C\CCC1=CC(=O)OC1O (centres unmarked)
Q: CCCCCCCC/C=C\CCCCCCCCCCC1=CC(=O)OC1O (centres unmarked)
Q: Hi, I'm comparing two records. Which one has the lower inhibition at 30 µg/mL, P or Q ? Return value: the label identifying the chosen record.
Result: Q
